Overview of recorded Potency for various compounds
Molecular target: Glucocorticoid receptor (Homo sapiens)
Assay: GR-GFP Redistribution (AID 450); note: potency is the fitted concentration of half-maximal effect
Details: U2OS GR-GFP nuclear translocation, laser cytometry, 2 h
Activity calls are given as the source filed them.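 Rule for the calls: active = compounds whose dose series gives a full or clear partial fitted curve of increased nuclear translocation; inconclusive = weak partial curve or effect only at the top dose; inactive = no dose-dependent translocation response.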
measured_quantity: Potency

1) COc1ccc(-n2c(=O)c(-c3cccc(Cl)c3)nc3cncnc32)cc1: > 9.22 µM (inactive)
2) COc1ccc(Oc2ncc3nc(C)c(=O)n(C)c3n2)cc1: > 9.22 µM (inactive)
3) N#Cc1cccc(-c2nc(Nc3ccncc3)c3ccccc3n2)c1: > 46 µM (inactive)
4) COc1ccc(-n2c(=O)c(-c3cccs3)nc3cnc(Nc4ccccc4)nc32)cc1: > 9.22 µM (inactive)
5) Cc1nc2cnc(Oc3cccc(Cl)c3)nc2n(C2CC2)c1=O: > 9.22 µM (inactive)
6) COc1ccc(Oc2ncc3nc(-c4cn(C)c5ccccc45)c(=O)n(C)c3n2)cc1: > 9.22 µM (inactive)
7) CCNc1ncc2nc(-c3ccc(F)cc3)c(=O)n(C[C@H]3CCCO3)c2n1: > 9.22 µM (inactive)
8) CN(C)Cc1ccccc1-c1ccc2ncnc(N3CCOCC3)c2c1: > 46 µM (inactive)
9) CNc1nc(-c2ccc(N(C)C)cc2)nc2ccccc12: > 46 µM (inactive)
10) O=C(O)[C@H]1CCCN(CCC=C(c2ccccc2)c2ccccc2)C1: > 46 µM (inactive)
11) COc1cccc(Cn2c(=O)c(-c3cccc(C#N)c3)nc3cnc(OC)nc32)c1: > 9.22 µM (inactive)
12) CN(Cc1ccco1)c1ncnc2ccc(-c3ccc4c(c3)OCO4)cc12: > 46 µM (inactive)
13) COc1cccc(Nc2ncc3nc(-c4cccs4)c(=O)n(CCC#N)c3n2)c1: > 9.22 µM (inactive)
14) COc1ccc2[nH]cc(CCNc3ncnc4ccc(-c5ccccc5C#N)cc34)c2c1: > 46 µM (inactive)
15) COc1cccc(Nc2ncc3nc(CCc4ccccc4)c(=O)n(Cc4cccs4)c3n2)c1: > 9.22 µM (inactive)
16) N#Cc1cccc(-c2nc(NCc3cccnc3)c3ccccc3n2)c1: > 46 µM (inactive)
17) COCCn1c(=O)c(-c2ccc(F)cc2)nc2cnc(N(C)C)nc21: > 9.22 µM (inactive)
18) CCNc1ncc2nc(C)c(=O)n(C[C@H]3CCCO3)c2n1: > 9.22 µM (inactive)
19) N#CCCn1c(=O)c(-c2ccc(F)cc2)nc2cnc(OCc3ccccc3)nc21: > 9.22 µM (inactive)
20) CS(=O)(=O)Nc1cccc(-c2nc(NC3CC3)c3ccccc3n2)c1: > 46 µM (inactive)
21) O=c1cnc2cnc(Nc3ccccc3)nc2n1C[C@H]1CCCO1: > 9.22 µM (inactive)
22) CCNc1ncc2nc(-c3ccc(OC)cc3)c(=O)n(Cc3ccc(F)cc3)c2n1: > 9.22 µM (inactive)
23) CNc1nc(-c2cccc(NS(C)(=O)=O)c2)nc2ccccc12: > 46 µM (inactive)
24) Cn1c(=O)c(-c2ccc(F)cc2)nc2cnc(N3CCOCC3)nc21: > 9.22 µM (inactive)
25) Clc1ccccc1-c1cc(NCc2ccccc2)ncn1: > 46 µM (inactive)
26) CN(C)c1ncnc2ccc(-c3ccc4c(c3)OCO4)cc12: > 46 µM (inactive)
27) COc1ccccc1CNc1ncnc2ccc(-c3cccnc3)cc12: > 46 µM (inactive)
28) COc1ccc(Oc2ncc3ncc(=O)n(Cc4ccc(F)cc4)c3n2)cc1: > 9.22 µM (inactive)
29) COc1ccc(-n2c(=O)c(CCc3ccccc3)nc3cncnc32)cc1: > 9.22 µM (inactive)
30) CCCN[C@@H](C)C(=O)Nc1c(C)csc1C(=O)OC: > 20.6 µM (inactive)
31) COCCn1c(=O)c(-c2cc(F)cc(F)c2)nc2cnc(N(C)C)nc21: > 9.22 µM (inactive)
32) O=c1c(-c2cccs2)nc2cnc(Oc3ccccc3)nc2n1Cc1cccs1: > 9.22 µM (inactive)
33) N#CCCn1c(=O)c(CCc2ccccc2)nc2cnc(Nc3ccccc3)nc21: > 9.22 µM (inactive)
34) Cc1noc(C)c1-c1nc(N2CCOCC2)c2ccccc2n1: > 46 µM (inactive)
35) COc1ccc(Oc2ncc3ncc(=O)n(Cc4cccc(OC)c4)c3n2)cc1: > 9.22 µM (inactive)
36) COCCn1c(=O)c(-c2ccc(OC)cc2)nc2cnc(N3CCN(C)CC3)nc21: > 9.22 µM (inactive)
37) CC(=O)NCCNc1nc(-c2cccc(NS(C)(=O)=O)c2)nc2ccccc12: > 46 µM (inactive)
38) COC(=O)C1=CO[C@@H](C)[C@H]2CN3CCc4c([nH]c5ccccc45)[C@@H]3C[C@H]12: > 20.6 µM (inactive)
39) Cc1cnc(CNc2ncncc2-c2ccc(N(C)C)cc2)cn1: > 46 µM (inactive)
40) CN1CCN(c2ccnc(-c3ccccc3C(F)(F)F)n2)CC1: > 46 µM (inactive)
41) COc1ccccc1CNc1nc(-c2ccccc2CN(C)C)nc2ccccc12: > 46 µM (inactive)
42) COCCn1c(=O)c(-c2ccc(Cl)cc2)nc2cncnc21: > 9.22 µM (inactive)
43) COc1cccc(Cn2c(=O)c(-c3cccc(C#N)c3)nc3cnc(N4CCOCC4)nc32)c1: > 9.22 µM (inactive)
44) CN(C)C(=O)c1ccc(-c2cncnc2NCCN2CCOCC2)cc1: > 46 µM (inactive)

###

Target: Cytochrome P450 3A4 (Homo sapiens) (UniProt P08684)
Sequence (P08684 whole entry, looked up): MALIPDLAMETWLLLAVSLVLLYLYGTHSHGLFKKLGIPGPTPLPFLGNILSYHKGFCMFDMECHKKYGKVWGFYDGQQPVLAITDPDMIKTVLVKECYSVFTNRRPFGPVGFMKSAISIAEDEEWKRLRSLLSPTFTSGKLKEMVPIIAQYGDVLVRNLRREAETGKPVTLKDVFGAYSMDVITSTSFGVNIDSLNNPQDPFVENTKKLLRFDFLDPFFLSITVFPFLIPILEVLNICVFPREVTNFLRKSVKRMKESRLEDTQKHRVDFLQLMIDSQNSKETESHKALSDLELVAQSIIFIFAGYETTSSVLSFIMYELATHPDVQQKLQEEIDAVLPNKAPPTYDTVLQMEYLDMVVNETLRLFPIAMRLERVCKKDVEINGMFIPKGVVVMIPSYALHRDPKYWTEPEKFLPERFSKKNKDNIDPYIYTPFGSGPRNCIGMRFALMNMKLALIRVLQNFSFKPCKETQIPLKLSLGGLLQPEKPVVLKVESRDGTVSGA
Assay: qHTS Assay for Activators of Cytochrome P450 3A4 (AID 885); note: nearly all actives have a fitted effect of over 65% in size
Conditions: recombinant CYP3A4, Luciferin-PPXE luminescence, 60 min; series mostly up to 57.1 µM
Calls of active or inactive are those of the source. Calls follow the shape of the dose curve; as a rule, active = well fitted activation curve with a large enough effect; inconclusive = small, poorly fitted or top-dose-only effect; inactive = no such curve, though single readings can be large or run the other way.
Classes used: true (active), false (inactive)

1) O=c1c(-c2ccc(Cl)cc2)nc2cnc(N3CCOCC3)nc2n1CCc1ccccc1: true
2) Cc1cnc(CNc2nc(-c3ccccc3Cl)nc3ccccc23)cn1: false
3) COC(=O)N1CCC2(CC1)CCN(c1ccccn1)CC2: true
4) O=S(=O)(c1ccccc1)N1CCC2(CCN(c3ccc(-c4ccccc4)cc3)CC2)CC1: false
5) CCNc1ncc2nc(-c3cc(F)cc(F)c3)c(=O)n(Cc3cccs3)c2n1: false
6) c1cc(NC2CC2)nc(-c2ccoc2)n1: false
7) CC(=O)N1CCC[C@@]2(CCN(c3ccccc3)C2)C1: false
8) CN1CCN(c2ncc3ncc(=O)n(CCc4ccccc4)c3n2)CC1: false
9) CCNc1ncc2nc(-c3cccc(C#N)c3)c(=O)n(CCC#N)c2n1: false
10) CNc1ccnc(-c2ccccc2C)n1: false
11) CN1CCN(c2ncc3nc(-c4cn(C)c5ccccc45)c(=O)n(CCc4ccccc4)c3n2)CC1: false

###

Some compounds, each annotated with its measured max response.
Assay: qHTS Assay for Lipid Storage Modulators (AID 1519)
Conditions: Drosophila S3 cells, BODIPY lipid droplet/cell ratio, laser cytometry; measured here: cell count channel max response; cells loaded with oleic acid
Inconclusive results are not listed.
measured_quantity: max response (%)

1. O=c1cc(-c2ccc(O)c(O)c2)oc2cc(OC3OC(CO)C(O)C(O)C3O)cc(O)c12 (stereo unspecified): 6.89
2. O=C(Nc1cccc(F)c1)N1CC2(CCN(C(=O)c3cnccn3)CC2)C1: 10.6
3. Nc1ccc(C(=O)O)c(O)c1 (tested in a mixture with another compound): 6.65
4. O=C(Nc1ccccc1)N1CC[C@@]2(CCCN(C(=O)c3ccncc3)C2)C1: 13.8
5. CC(=O)NCCNc1nc(-c2ccc(N(C)C)cc2)nc2ccccc12: 13
6. CC(=O)N1CCC2(CC1)CN(c1cccc(-c3ccccc3)c1)C2: 6.96
7. NC(=O)OC[C@H](O)COc1ccc(Cl)cc1: 14
8. Cn1c(=O)c(-c2ccc(F)cc2)nc2cnc(OCc3ccccc3)nc21: 7.28
9. O=C(c1ccncc1)N1CCC2(CCCN(Cc3ccncc3)C2)CC1: 1.67
10. O=C(c1csnn1)N1CCC2(CC1)CCN(c1cccc(-c3ccccc3)c1)CC2: 9.03
11. CC(=O)N1CCC2(CC1)CCN(c1ccncc1)CC2: -6.73
12. CC1(C)[C@@H](O)CC[C@]2(C)C3C(=O)C=C4C5C[C@@](C)(C(=O)O)CC[C@]5(C)CC[C@@]4(C)[C@]3(C)CC[C@@H]12 (stereo partly specified): 8.09
13. C[C@]12CCC3c4ccc(O)cc4CCC3[C@@H]1CCC2=O (stereo partly specified): -7.49
14. O=C(c1csnn1)N1CCC2(CCN(Cc3cc(C(F)(F)F)cc(C(F)(F)F)c3)CC2)CC1: 7.55
15. CN(C)CCO[C@](C)(c1ccccc1)c1ccccn1: 16.6
16. C=CC(C1=CC(=O)C(OC)=CC1=O)c1ccccc1 (stereo unspecified): -0.41
17. O=C(Nc1cccc(F)c1)N1CC[C@@]2(CCCN(C(=O)c3csnn3)C2)C1: 12.5
18. Cc1ccccc1-c1nc(-n2ccnc2)c2ccccc2n1: -6.87
19. Cn1cccc1C(=O)N1CCC[C@@]2(CCN(C(=O)Nc3cccc(F)c3)C2)C1: 9.75
20. COc1ccccc1-c1ccc2ncnc(NCc3ccccc3)c2c1: -12.6
21. COc1ccccc1CN1CC2(CCN(C(=O)c3ccncc3)CC2)C1: -19.5

Data provenance: PubChem BioAssay (NCATS)
